The next entries give measured IC50 for UniProt:Q9Y6A2.
Sequence (Q9Y6A2 whole entry): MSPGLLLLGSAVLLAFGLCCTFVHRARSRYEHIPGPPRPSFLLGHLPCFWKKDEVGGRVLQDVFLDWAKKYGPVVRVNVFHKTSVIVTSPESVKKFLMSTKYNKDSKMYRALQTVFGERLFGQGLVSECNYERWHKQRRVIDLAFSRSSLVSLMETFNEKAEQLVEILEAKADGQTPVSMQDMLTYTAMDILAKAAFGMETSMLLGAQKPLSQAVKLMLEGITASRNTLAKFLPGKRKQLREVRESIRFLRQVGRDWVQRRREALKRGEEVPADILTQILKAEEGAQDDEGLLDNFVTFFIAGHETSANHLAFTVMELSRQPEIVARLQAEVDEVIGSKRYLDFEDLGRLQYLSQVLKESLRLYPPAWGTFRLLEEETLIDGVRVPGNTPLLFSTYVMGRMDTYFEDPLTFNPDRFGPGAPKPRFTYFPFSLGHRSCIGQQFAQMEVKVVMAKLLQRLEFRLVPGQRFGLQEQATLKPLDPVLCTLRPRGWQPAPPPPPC

>  <chemical_smiles>
O=C(c1cccnc1-c1ccncn1)N1CCC(F)(Cc2ccc(CF)nc2)CC1

>  <target_or_system>
UniProt:Q9Y6A2

>  <IC50>
< 100 nM

$$$$
>  <chemical_smiles>
O=C(c1cccnc1-c1ccncn1)N1CCC(F)(Cc2ccc(C(F)(F)F)cn2)CC1

>  <target_or_system>
UniProt:Q9Y6A2

>  <IC50>
< 100 nM

$$$$
>  <chemical_smiles>
O=C(c1cccnc1-c1ccncn1)N1CCC(F)(Cc2ncc(C(F)(F)F)cn2)CC1

>  <target_or_system>
UniProt:Q9Y6A2

>  <IC50>
> 1000 nM

$$$$

Item `C[C@@H](c1cc(F)cc(F)c1)C1(F)CCN(C(=O)c2cccnc2-c2ccncn2)CC1` ; assay system UniProt:Q9Y6A2; IC50 reported as < 100 nM
